IC50 for assorted compounds
# measured.on: human NOX4 (Homo sapiens, UniProt Q9NPH5)
# Construct: The full-length human NOX4 (NM_016931.3) transcript was cloned
# Sequence (Q9NPH5 whole entry): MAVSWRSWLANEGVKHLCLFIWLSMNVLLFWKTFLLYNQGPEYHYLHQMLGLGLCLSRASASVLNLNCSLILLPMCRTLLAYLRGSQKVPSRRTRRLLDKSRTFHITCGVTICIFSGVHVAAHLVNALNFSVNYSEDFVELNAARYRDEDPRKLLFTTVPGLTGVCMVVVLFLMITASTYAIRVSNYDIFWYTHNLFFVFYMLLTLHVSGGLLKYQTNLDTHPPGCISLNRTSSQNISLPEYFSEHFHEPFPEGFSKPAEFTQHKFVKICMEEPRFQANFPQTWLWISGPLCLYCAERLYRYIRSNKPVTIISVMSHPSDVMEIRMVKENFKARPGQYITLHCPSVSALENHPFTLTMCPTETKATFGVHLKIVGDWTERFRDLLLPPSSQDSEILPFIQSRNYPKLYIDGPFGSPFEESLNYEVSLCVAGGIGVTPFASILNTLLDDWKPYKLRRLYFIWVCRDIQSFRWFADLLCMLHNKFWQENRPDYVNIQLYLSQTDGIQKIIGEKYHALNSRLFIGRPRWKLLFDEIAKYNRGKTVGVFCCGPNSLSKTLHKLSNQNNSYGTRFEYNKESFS
# Sequence (P13498 whole entry partner): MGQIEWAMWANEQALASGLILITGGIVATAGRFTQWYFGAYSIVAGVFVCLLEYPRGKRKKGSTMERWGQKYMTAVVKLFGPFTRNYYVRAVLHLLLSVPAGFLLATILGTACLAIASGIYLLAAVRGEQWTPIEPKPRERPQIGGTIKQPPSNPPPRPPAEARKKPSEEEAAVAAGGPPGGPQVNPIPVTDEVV
# protocol.text: Amplex Red activity assay (cellular H2O2 formation in hNOX4 T-REx-293 cells)
# reported.conditions: tet-induced 24 h, extracellular H2O2 by Amplex Red, 60 min 25° C., geometric mean if determined several times
measured.metric: IC50 (nM)

>  <chemical.structure>
O=C(Nc1ccc2oc(N3CC(O)C3)nc2c1)c1ccc2c(c1)OCCO2

>  <measured.on>
human NOX4 (Homo sapiens, UniProt Q9NPH5)

>  <measured.metric>
IC50

>  <observed.measurement>
1480

$$$$
>  <chemical.structure>
CC1(O)CN(C2CN(c3nc4cc(NC(=O)c5ccc6c(c5)CCO6)ccc4o3)C2)C1

>  <measured.on>
human NOX4 (Homo sapiens, UniProt Q9NPH5)

>  <measured.metric>
IC50

>  <observed.measurement>
1400

$$$$
>  <chemical.structure>
COC1CCN(c2nc3cc(NC(=O)c4ccc5c(c4)OCCO5)ccc3o2)CC1

>  <measured.on>
human NOX4 (Homo sapiens, UniProt Q9NPH5)

>  <measured.metric>
IC50

>  <observed.measurement>
793

$$$$
>  <chemical.structure>
CN(c1nc2cc(NC(=O)c3ccc4c(c3)CCO4)ccc2o1)C1COC1

>  <measured.on>
human NOX4 (Homo sapiens, UniProt Q9NPH5)

>  <measured.metric>
IC50

>  <observed.measurement>
681

$$$$
